These data points were gathered from patent US20260364080A1.

Target: Myt1 kinase (recombinant PMYT-1) (Homo sapiens, UniProt Q99640)
Construct: full length PMYT-1 was expressed by baculovirus in insect cells; purchased Invitrogen A30984; host or cells: insect cells (baculovirus)
Sequence (Q99640 whole entry): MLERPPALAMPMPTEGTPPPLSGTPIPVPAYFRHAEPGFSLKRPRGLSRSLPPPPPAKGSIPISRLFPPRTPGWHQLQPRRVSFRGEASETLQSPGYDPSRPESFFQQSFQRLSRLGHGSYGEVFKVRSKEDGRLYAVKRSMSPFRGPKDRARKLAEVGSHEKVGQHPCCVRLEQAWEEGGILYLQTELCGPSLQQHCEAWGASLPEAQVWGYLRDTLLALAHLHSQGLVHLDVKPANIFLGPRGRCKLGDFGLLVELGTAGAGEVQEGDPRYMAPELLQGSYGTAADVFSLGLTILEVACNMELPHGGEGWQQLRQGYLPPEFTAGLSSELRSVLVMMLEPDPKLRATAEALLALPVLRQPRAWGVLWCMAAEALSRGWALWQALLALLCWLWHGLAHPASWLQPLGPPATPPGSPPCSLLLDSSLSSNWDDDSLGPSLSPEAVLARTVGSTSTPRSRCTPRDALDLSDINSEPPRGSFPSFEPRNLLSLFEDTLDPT
Experiment: Myt1 kinase binding assay (LanthaScreen Eu Kinase Binding Assay)
Settings: 3 nM tracer 178, 2.5 nM PMYT-1, 1 nM Eu-labeled antibody; read-out: Myt1 kinase Binding IC50
Protocol: To calculate the emission ratio, the acceptor/tracer emission ([…]) was divided by the antibody/donor emission ([…]) and the average of duplicate measurement was used for calculations. Data plotting, analysis of binding, and curve fitting was done using Excel add-in XLfit version 5.5.0.5 (IDBS, Guildford, United Kingdom). […] “NT” means not tested. We used a LanthaScreen Europium (Eu) Kinase Binding Assay to determine the binding affinities (IC50) of compounds to Myt1 kinase. […]
Reported IC50 is given for each of the following compounds.

Would you please look over these solved cases?
CCn1c(=O)c2cnc(Nc3cnn(C)c3)nc2n1-c1cccc(OC2CCN(C)CC2)n1 [Compound 132] | 0.1 to 0.5 µM
C=CCn1c(=O)c2cnc(Nc3ccc(Br)cc3)nc2n1-c1cccc(NC2CCNCC2)n1 | 0.02 to 0.1 µM
C=CCn1c(=O)c2cnc(Nc3ccc4c(cnn4C)c3)nc2n1-c1ccnc(OC2CCNCC2)n1 | 0.1 to 0.5 µM
C=CCn1c(=O)c2cnc(Nc3cnn(CCC)c3)nc2n1-c1cccc(OC2CCN(C)CC2)n1 | 0.1 to 0.5 µM

"C=CCn1c(=O)c2cnc(Nc3ccc4scnc4c3)nc2n1-c1cccc(OC2CCN(C)CC2)n1" has a reported IC50 of < 0.02 µM

* * *

Listed below: pIC50 values for each entry.
target: Myt1 kinase (recombinant PMYT-1) (Homo sapiens, UniProt Q99640); construct: full length PMYT-1 was expressed by baculovirus in insect cells; purchased Invitrogen A30984; host or cells: insect cells (baculovirus); test: Myt1 kinase binding assay (LanthaScreen Eu Kinase Binding Assay); conditions: 3 nM tracer 178, 2.5 nM PMYT-1, 1 nM Eu-labeled antibody; read-out: Myt1 kinase Binding IC50
pIC50: −log10 of the molar value.

C=CCn1c(=O)c2cnc(Nc3ccc(OCCCF)cc3)nc2n1-c1cccc(OC2CCNCC2)n1 | > 7.70
C=CCn1c(=O)c2cnc(Nc3ccc(Cl)c(Cl)c3)nc2n1-c1cccc(NC2CCN(C)CC2)n1 | 6.30 to 7.00
C=CCn1c(=O)c2cnc(Nc3ccc(F)c(C)c3)nc2n1-c1cccc(NC2CCNCC2)n1 | 6.30 to 7.00
CN1CCC(Oc2cccc(-n3c4nc(Nc5ccc(Cl)cc5)ncc4c(=O)n3C)n2)CC1 | 7.00 to 7.70
C=CCn1c(=O)c2cnc(Nc3cc(C)cc(F)c3)nc2n1-c1cccc(NC2CCNCC2)n1 | 6.30 to 7.00
C=CCn1c(=O)c2cnc(Nc3cnn(C(C)C)c3)nc2n1-c1cccc(OC2CCN(C)CC2)n1 | 6.30 to 7.00
C=CCn1c(=O)c2cnc(Nc3ccc(OCC(F)(F)F)cc3)nc2n1-c1ccnc(OC2CCN(C)CC2)n1 | 7.00 to 7.70
C=CCn1c(=O)c2cnc(Nc3ccc4c(cnn4CC(C)C)c3)nc2n1-c1cccc(OC2CCNCC2)n1 | > 7.70

Briefly, pIC50 measured for "C=CCn1c(=O)c2cnc(Nc3ccc4ccncc4c3)nc2n1-c1cccc(OC2CCNCC2)n1" : 7.00 to 7.70

The compound listed as "C=CCn1c(=O)c2cnc(Nc3cccc(Br)c3)nc2n1-c1cccc(OC2CCN(C)CC2)n1" shows pIC50 equal to > 7.70

// field: pIC50; key: "C=CCn1c(=O)c2cnc(Nc3cccc(-c4cccnc4)c3)nc2n1-c1cccc(OC2CCN(C)CC2)n1" ; value = 7.00 to 7.70

* * *

molecular target: Wee1A kinase (CDK1 Tyr15 phosphorylation in ACHN renal cell carcinoma cells) (Homo sapiens, UniProt P30291); construct: pCDK1 Tyr15 immunofluorescence read-out; assay: High-content imaging of pCdk1 Y15, Wee1A kinase target engagement in ACHN cells; type: cell-based; conditions: 4 h treatment, nuclear positivity for pCdk1 Y15 vs DMSO control, read-out: CDK1 Tyr15 Phosphorylation EC50
Sequence (P30291 whole entry): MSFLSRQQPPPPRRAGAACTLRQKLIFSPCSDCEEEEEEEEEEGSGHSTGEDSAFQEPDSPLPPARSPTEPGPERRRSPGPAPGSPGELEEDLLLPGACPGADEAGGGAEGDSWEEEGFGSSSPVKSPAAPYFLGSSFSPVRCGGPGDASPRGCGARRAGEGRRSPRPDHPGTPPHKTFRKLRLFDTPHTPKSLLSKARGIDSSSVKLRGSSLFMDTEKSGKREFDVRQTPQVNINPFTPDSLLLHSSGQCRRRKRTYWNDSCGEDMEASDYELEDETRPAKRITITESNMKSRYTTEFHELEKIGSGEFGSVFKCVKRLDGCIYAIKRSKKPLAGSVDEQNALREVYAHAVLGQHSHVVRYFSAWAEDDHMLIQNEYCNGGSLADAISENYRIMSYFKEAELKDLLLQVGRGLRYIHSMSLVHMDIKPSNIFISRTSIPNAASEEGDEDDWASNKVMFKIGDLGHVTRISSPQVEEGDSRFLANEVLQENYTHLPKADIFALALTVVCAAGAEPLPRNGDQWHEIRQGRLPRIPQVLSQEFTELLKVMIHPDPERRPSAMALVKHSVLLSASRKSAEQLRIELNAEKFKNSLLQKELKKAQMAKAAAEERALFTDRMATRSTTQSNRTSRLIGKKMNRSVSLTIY
pEC50: −log10 of the molar value.
Consider the following molecules and their measured pEC50 readings.

Answered examples (4):
C=CCn1c(=O)c2cnc(Nc3ccc(Cl)cc3)nc2n1-c1cccc(OC2CCCNC2)n1 (stereo in doubt) | 6.00 to 6.30
C=CCn1c(=O)c2cnc(Nc3ccc4c(cnn4C)c3)nc2n1-c1cccc(NC2CCNCC2)n1 | 6.00 to 6.30
C=CCn1c(=O)c2cnc(Nc3ccc4c(cnn4C)c3)nc2n1-c1cccc(O[C@@H]2CCN[C@H](C)C2)n1 (stereo in doubt) | > 7.00
C=CCn1c(=O)c2cnc(Nc3cccc(-c4cccnc4)c3)nc2n1-c1cccc(OC2CCN(C)CC2)n1 | 6.30 to 7.00

Okay, now this molecule:
Lookup result for "CCn1c(=O)c2cnc(Nc3ccc4c(cnn4C)c3)nc2n1-c1cccc(OC2CCNCC2)n1" ; measured pEC50: 6.30 to 7.00

* * *

biological target: recombinant human Wee1A kinase (Homo sapiens, UniProt P30291); construct: full length Wee1 kinase was expressed by baculovirus in insect cells; purchased Invitrogen PV3817; host or cells: insect cells (baculovirus); assay: Wee1A kinase binding assay (LanthaScreen Eu time-resolved FRET); settings: 30 nM tracer 178, 5 nM Wee1A kinase, 2 nM Eu-labeled antibody; 60 minutes at room temperature; read-out: Wee1A kinase Binding IC50
Sequence (P30291 whole entry): as above
compounds and their reported IC50

// worked examples, IC50 included
C=CCn1c(=O)c2cnc(Nc3ccc(Cl)c(C)c3)nc2n1-c1cccc(NC2CCNCC2)n1 [Compound 133] | < 10 nM
C=CCn1c(=O)c2cnc(Nc3cncc(F)c3)nc2n1-c1cccc(OC2CCNCC2)n1 [Compound 329] | < 10 nM

Please fill in: IC50 reported for [2H]C([2H])([2H])c1cccc(Nc2ncc3c(=O)n(CC=C)n(-c4cccc(OC5CCNCC5)n4)c3n2)c1 [Compound 334] = < 10 nM

* * *

Reported IC50 values follow for various compounds
molecular target: recombinant human Wee1A kinase (Homo sapiens); construct: full length Wee1 kinase was expressed by baculovirus in insect cells; purchased Invitrogen PV3817; host or cells: insect cells (baculovirus); test: Wee1A kinase binding assay (LanthaScreen Eu time-resolved FRET); conditions: 30 nM tracer 178, 5 nM Wee1A kinase, 2 nM Eu-labeled antibody; 60 minutes at room temperature; read-out: Wee1A kinase Binding IC50

Some compounds with known IC50 results, for comparison:
C=CCn1c(=O)c2cnc(Nc3ccc(C)nc3)nc2n1-c1cccc(OC2CCN(C)CC2)n1 [Compound 197] | < 10 nM
C=CCn1c(=O)c2cnc(Nc3cnc4c(cnn4C(C)C)c3)nc2n1-c1cccc(OC2CCNCC2)n1 [Compound 407] | < 10 nM
C=CCn1c(=O)c2cnc(Nc3ccc(OCC(F)(F)F)cc3)nc2n1-c1ccnc(OC2CCN(C3COC3)CC2)n1 [Compound 371] | < 10 nM
C=CCn1c(=O)c2cnc(Nc3ccc4ncnn4c3)nc2n1-c1cccc(OC2CCN(C)CC2)n1 [Compound 249] | < 10 nM
C=CCn1c(=O)c2cnc(Nc3ccc4c(cnn4C)c3)nc2n1-c1cccc(OC2CCN(CC)CC2)n1 [Compound 321] | < 10 nM
C=CCn1c(=O)c2cnc(Nc3ccc4c(cnn4C)c3)nc2n1-c1cccc(NC2CCNCC2)n1 [Compound 122] | < 10 nM

Continue with the next compound.
Quick note, IC50 for C=CCn1c(=O)c2cnc(Nc3ccc4c(cnn4C)c3)nc2n1-c1cccc(O[C@@H]2CCCN(C)C2)n1 [Compound 331] landed at < 10 nM

* * *

target: Myt1 kinase (recombinant PMYT-1) (Homo sapiens); construct: full length PMYT-1 was expressed by baculovirus in insect cells; purchased Invitrogen A30984; host or cells: insect cells (baculovirus); assay: Myt1 kinase binding assay (LanthaScreen Eu Kinase Binding Assay); settings: 3 nM tracer 178, 2.5 nM PMYT-1, 1 nM Eu-labeled antibody; read-out: Myt1 kinase Binding IC50
Property: IC50; scope: individual compounds

For orientation, consider the following solved cases.
C=CCn1c(=O)c2cnc(Nc3ccc(OCC4CC4)cc3)nc2n1-c1cccc(OC2CCNCC2)n1 | < 20 nM
C=CCn1c(=O)c2cnc(Nc3ccc4[nH]nc(C)c4c3)nc2n1-c1cccc(OC2CCNCC2)n1 | 20 to 100 nM

# compound "CCn1c(=O)c2cnc(Nc3cccc(-c4ccccc4)c3)nc2n1-c1cccc(OC2CCN(C)CC2)n1" ; its IC50 = 20 to 100 nM

Reported IC50 ( "C=CCn1c(=O)c2cnc(Nc3ccc(OCC(F)(F)F)cc3)nc2n1-c1ccnc(OC2CCNCC2)n1" ) = 20 to 100 nM

// IC50 value for "C=CCn1c(=O)c2cnc(Nc3ccc(F)c(C)c3)nc2n1-c1cccc(NC2CCN(C)CC2)n1" : 100 to 500 nM

The compound listed as "C=CCn1c(=O)c2cnc(Nc3ccc4nc(C)sc4c3)nc2n1-c1cccc(OC2CCNCC2)n1" has a reported IC50 of < 20 nM

Input "C=CCn1c(=O)c2cnc(Nc3ccc4ncccc4c3)nc2n1-c1cccc(OC2CCNCC2)n1" . Output IC50: < 20 nM

Entry "C=CCn1c(=O)c2cnc(Nc3ccc4c(cnn4C(C)C)c3)nc2n1-c1ccnc(OC2CCN(C)CC2)n1" — recorded IC50 = < 20 nM

Briefly, IC50 measured for "C=CCn1c(=O)c2cnc(Nc3ccc(Cl)cc3)nc2n1-c1cccc(N[C@H]2CCCNC2)n1" : 20 to 100 nM

// recorded IC50 for "C=CCn1c(=O)c2cnc(Nc3ccc4c(cnn4CCCF)c3)nc2n1-c1cccc(OC2CCN(C)CC2)n1" : 20 to 100 nM

So for "C=CCn1c(=O)c2cnc(Nc3ccc4c(cnn4C(C)C)c3)nc2n1-c1ccnc(OC2CCNCC2)n1" , the logged IC50 turned out to be 20 to 100 nM

IC50 in this record for "C=CCn1c(=O)c2cnc(Nc3ccc(Cl)cc3)nc2n1-c1cccc(O[C@@H]2CCCNC2)n1" : 100 to 500 nM
